Target: Cannabinoid receptor 1 (Rattus norvegicus)
Assay: Displacement of [3H]CP55940 from rat brain membrane CB1 receptor at 10 uM incubated for 3 hrs by scintillation counter analysis relative to control
Assay type: cell membranes
// values below are reported Activity

[
  {
    "Structure string": "CCN(CC)C(=O)c1ccc2c(c1)nc(Cc1ccc(OC(=O)NC3CC3)cc1)n2CCC(C)C",
    "Sign": "=",
    "Activity / %": 32
  },
  {
    "Structure string": "CCN(CC)C(=O)c1ccc2c(c1)nc(Cc1ccc(OC(=O)N(C)C)cc1)n2CCC(C)C",
    "Sign": "<",
    "Activity / %": 10
  },
  {
    "Structure string": "CCN(CC)C(=O)c1ccc2c(c1)nc(Cc1ccc(O)cc1)n2CCC(C)C",
    "Sign": "=",
    "Activity / %": 10
  },
  {
    "Structure string": "CCOc1ccc(Cc2nc3cc(O)ccc3n2CCC(C)C)cc1",
    "Sign": "=",
    "Activity / %": 19
  },
  {
    "Structure string": "CCOc1ccc(Cc2nc3cc(OC(=O)NC4CC4)ccc3n2CCC(C)C)cc1",
    "Sign": "=",
    "Activity / %": 22
  }
]

* * *

pKi: −log10 of the molar value.
Here we list compounds with their recorded pKi when tested on Cannabinoid receptor 2 (Homo sapiens, UniProt P34972).
Sequence (P34972 whole entry): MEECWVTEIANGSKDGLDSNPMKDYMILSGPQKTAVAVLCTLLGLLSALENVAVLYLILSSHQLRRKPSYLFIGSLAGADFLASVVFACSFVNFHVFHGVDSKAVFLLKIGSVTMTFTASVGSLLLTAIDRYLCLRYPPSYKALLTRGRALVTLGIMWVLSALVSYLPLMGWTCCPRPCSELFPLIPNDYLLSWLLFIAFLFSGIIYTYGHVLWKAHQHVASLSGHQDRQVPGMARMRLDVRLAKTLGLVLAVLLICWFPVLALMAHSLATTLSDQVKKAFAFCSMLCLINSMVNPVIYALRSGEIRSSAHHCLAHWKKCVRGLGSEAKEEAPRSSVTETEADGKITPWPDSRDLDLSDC

[
  {
    "Structure string": "CC(C)(C)OC(=O)NCCOCCOc1ccc(-c2cc(=O)c3ccccc3o2)cc1",
    "pKi": 5.35
  },
  {
    "Structure string": "NCCOCCOc1ccc(-c2cc(=O)c3ccccc3o2)cc1",
    "pKi": 7.70
  },
  {
    "Structure string": "CC(C)(C)OC(=O)NCCOCCOc1ccc(-c2cc(=O)c3c(OCc4ccccc4)cccc3o2)cc1",
    "pKi": 5.70
  },
  {
    "Structure string": "Cc1cc([N+](=O)[O-])c2oc(-c3ccc(OCCOCCNC(=O)OC(C)(C)C)cc3)cc(=O)c2c1",
    "pKi": 6.12
  }
]

* * *

Target: Cholinesterase (Homo sapiens)
Sequence (P06276 whole entry): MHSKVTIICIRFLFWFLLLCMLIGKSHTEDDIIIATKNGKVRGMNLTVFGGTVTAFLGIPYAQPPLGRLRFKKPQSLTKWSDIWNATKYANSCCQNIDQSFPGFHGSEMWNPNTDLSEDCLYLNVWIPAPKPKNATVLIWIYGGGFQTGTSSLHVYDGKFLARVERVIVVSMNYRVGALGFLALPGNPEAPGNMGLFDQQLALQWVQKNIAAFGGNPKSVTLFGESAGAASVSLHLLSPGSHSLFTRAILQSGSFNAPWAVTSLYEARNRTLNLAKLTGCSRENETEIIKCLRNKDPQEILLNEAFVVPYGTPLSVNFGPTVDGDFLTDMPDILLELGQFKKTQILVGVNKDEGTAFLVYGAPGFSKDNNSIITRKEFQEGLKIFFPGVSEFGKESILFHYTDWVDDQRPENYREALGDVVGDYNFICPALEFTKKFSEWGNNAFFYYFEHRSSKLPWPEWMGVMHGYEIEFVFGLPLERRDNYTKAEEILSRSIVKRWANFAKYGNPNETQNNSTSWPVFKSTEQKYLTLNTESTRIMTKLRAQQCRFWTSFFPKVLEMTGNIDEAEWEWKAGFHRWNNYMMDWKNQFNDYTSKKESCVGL
pIC50: −log10 of the molar value.
Everything with pIC50 lower than 6 is 0; everything else, including exactly 6, is 1.

[
  {
    "Structure string": "CCN(CC)C(=O)c1ccc2c(c1)nc(Cc1ccc(OC(=O)N(C)c3ccccc3)cc1)n2CCC(C)C",
    "Target desc": "Cholinesterase (Homo sapiens)",
    "Assigned label": 0
  },
  {
    "Structure string": "CCN(CC)C(=O)c1ccc2c(c1)nc(Cc1ccc(OC(=O)N(C)C)cc1)n2CCC(C)C",
    "Target desc": "Cholinesterase (Homo sapiens)",
    "Assigned label": 1
  },
  {
    "Structure string": "CCOc1ccc(Cc2nc3cc(OC(=O)N4CCC4)ccc3n2CCC(C)C)cc1",
    "Target desc": "Cholinesterase (Homo sapiens)",
    "Assigned label": 1
  },
  {
    "Structure string": "CCN(CC)C(=O)Oc1ccc(Cc2nc3cc(C(=O)N(CC)CC)ccc3n2CCC(C)C)cc1",
    "Target desc": "Cholinesterase (Homo sapiens)",
    "Assigned label": 0
  },
  {
    "Structure string": "CCN(CC)C(=O)c1ccc2c(c1)nc(Cc1ccccc1)n2CCC(C)C",
    "Target desc": "Cholinesterase (Homo sapiens)",
    "Assigned label": 1
  },
  {
    "Structure string": "CCOc1ccc(Cc2nc3cc(OC(=O)N(C)C)ccc3n2CCC(C)C)cc1",
    "Target desc": "Cholinesterase (Homo sapiens)",
    "Assigned label": 0
  },
  {
    "Structure string": "CCOc1ccc(Cc2nc3cc(OC(=O)N(C)CC)ccc3n2CCC(C)C)cc1",
    "Target desc": "Cholinesterase (Homo sapiens)",
    "Assigned label": 0
  },
  {
    "Structure string": "CCN(CC)C(=O)c1ccc2c(c1)nc(Cc1ccc(OC(=O)NCc3ccccc3)cc1)n2CCC(C)C",
    "Target desc": "Cholinesterase (Homo sapiens)",
    "Assigned label": 1
  }
]

* * *

Molecular target: Cholinesterase (Homo sapiens)
# note: exactly 300 nM is not below, so it is 0 (no); use 1 (yes) for IC50 strictly under it

[
  {
    "Structure string": "Cc1cc([N+](=O)[O-])c2oc(-c3ccc(OCCOCCNC(=O)OC(C)(C)C)cc3)cc(=O)c2c1",
    "Assigned label": "0 (no)"
  },
  {
    "Structure string": "O=c1cc(-c2ccc(O)cc2)oc2cccc(OCc3ccccc3)c12",
    "Assigned label": "1 (yes)"
  },
  {
    "Structure string": "CC(C)(C)OC(=O)NCCOCCOc1ccc(-c2cc(=O)c3ccccc3o2)cc1",
    "Assigned label": "1 (yes)"
  },
  {
    "Structure string": "CCN(CC)C(=O)c1ccc2c(c1)nc(Cc1ccccc1)n2CCC(C)C",
    "Assigned label": "1 (yes)"
  },
  {
    "Structure string": "NCCOCCOc1ccc(-c2cc(=O)c3ccccc3o2)cc1",
    "Assigned label": "0 (no)"
  },
  {
    "Structure string": "CC(C)(C)OC(=O)NCCOCCOc1ccc(-c2cc(=O)c3c(OCc4ccccc4)cccc3o2)cc1",
    "Assigned label": "0 (no)"
  }
]

* * *

// values below are reported IC50
Molecular target: Acetylcholinesterase (Homo sapiens)
Sequence (P22303 whole entry): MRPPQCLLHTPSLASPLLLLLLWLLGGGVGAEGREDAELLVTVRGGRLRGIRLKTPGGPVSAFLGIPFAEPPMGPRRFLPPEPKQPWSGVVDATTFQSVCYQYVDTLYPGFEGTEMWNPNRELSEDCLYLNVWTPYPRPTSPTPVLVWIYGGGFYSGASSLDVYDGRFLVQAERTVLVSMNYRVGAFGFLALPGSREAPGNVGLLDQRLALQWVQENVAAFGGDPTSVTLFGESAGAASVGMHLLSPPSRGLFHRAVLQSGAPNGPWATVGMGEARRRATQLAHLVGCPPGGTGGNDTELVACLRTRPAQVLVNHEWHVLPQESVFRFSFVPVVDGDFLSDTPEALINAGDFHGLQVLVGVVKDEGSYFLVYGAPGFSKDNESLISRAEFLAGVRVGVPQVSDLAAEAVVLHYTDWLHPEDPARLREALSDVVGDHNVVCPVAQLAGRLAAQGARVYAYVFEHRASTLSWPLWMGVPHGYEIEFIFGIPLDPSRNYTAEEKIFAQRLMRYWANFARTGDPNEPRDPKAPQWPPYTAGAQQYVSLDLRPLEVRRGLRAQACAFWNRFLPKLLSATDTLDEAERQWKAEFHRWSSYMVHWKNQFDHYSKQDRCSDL

[
  {
    "Structure string": "O=c1cc(-c2ccc(O)cc2)oc2ccccc12",
    "Target desc": "Acetylcholinesterase (Homo sapiens)",
    "IC50 [µM]": 1.5
  },
  {
    "Structure string": "CCN(CC)C(=O)c1ccc2c(c1)nc(Cc1ccccc1)n2CCC(C)C",
    "Target desc": "Acetylcholinesterase (Homo sapiens)",
    "IC50 [µM]": 3.8
  },
  {
    "Structure string": "O=c1cc(-c2ccc(O)cc2)oc2cccc(OCc3ccccc3)c12",
    "Target desc": "Acetylcholinesterase (Homo sapiens)",
    "IC50 [µM]": 0.711
  }
]

* * *

// values below are reported Activity
Molecular target: Cannabinoid receptor 1 (Rattus norvegicus)
Experiment: Displacement of [3H]CP55940 from rat brain membrane CB1 receptor at 10 uM incubated for 3 hrs by scintillation counter analysis relative to control
Assay type: cell membranes

[
  {
    "Structure string": "CCN(CC)C(=O)c1ccc2c(c1)nc(Cc1ccc(OC(=O)N(C)c3ccccc3)cc1)n2CCC(C)C",
    "Sign": "=",
    "Activity (%)": 25
  },
  {
    "Structure string": "CCNC(=O)Oc1ccc(Cc2nc3cc(C(=O)N(CC)CC)ccc3n2CCC(C)C)cc1",
    "Sign": "=",
    "Activity (%)": 37
  },
  {
    "Structure string": "CCN(CC)C(=O)c1ccc2c(c1)nc(Cc1ccc(OC(=O)NCc3ccccc3)cc1)n2CCC(C)C",
    "Sign": "<",
    "Activity (%)": 10
  }
]

* * *

Target: Cannabinoid receptor 2 (Homo sapiens, UniProt P34972)
pIC50: −log10 of the molar value.
// values below are reported pIC50

[
  {
    "Structure string": "CCOc1ccc(Cc2nc3cc(OC(=O)N4CCC4)ccc3n2CCC(C)C)cc1",
    "pIC50": 5.99
  },
  {
    "Structure string": "CCN(CC)C(=O)c1ccc2c(c1)nc(Cc1ccc(O)cc1)n2CCC(C)C",
    "pIC50": 5.66
  },
  {
    "Structure string": "CCOc1ccc(Cc2nc3cc(OC(=O)N(C)CC)ccc3n2CCC(C)C)cc1",
    "pIC50": 6.24
  },
  {
    "Structure string": "CCN(CC)C(=O)c1ccc2c(c1)nc(Cc1ccc(OC(=O)N(C)Cc3ccccc3)cc1)n2CCC(C)C",
    "pIC50": 5.59
  },
  {
    "Structure string": "CCN(C)C(=O)Oc1ccc(Cc2nc3cc(C(=O)N(CC)CC)ccc3n2CCC(C)C)cc1",
    "pIC50": 4.96
  },
  {
    "Structure string": "CCN(CC)C(=O)c1ccc2c(c1)nc(Cc1ccc(OC(=O)NCc3ccccc3)cc1)n2CCC(C)C",
    "pIC50": 4.96
  },
  {
    "Structure string": "CCOc1ccc(Cc2nc3cc(O)ccc3n2CCC(C)C)cc1",
    "pIC50": 5.26
  },
  {
    "Structure string": "CCN(CC)C(=O)c1ccc2c(c1)nc(Cc1ccc(OC(=O)N(C)c3ccccc3)cc1)n2CCC(C)C",
    "pIC50": 5.41
  },
  {
    "Structure string": "CCOc1ccc(Cc2nc3cc(OC(=O)NC4CC4)ccc3n2CCC(C)C)cc1",
    "pIC50": 6.00
  },
  {
    "Structure string": "CCN(CC)C(=O)c1ccc2c(c1)nc(Cc1ccc(OC(=O)N(C)C)cc1)n2CCC(C)C",
    "pIC50": 6.11
  },
  {
    "Structure string": "CCOc1ccc(Cc2nc3cc(OC(=O)N4CCCC4)ccc3n2CCC(C)C)cc1",
    "pIC50": 5.82
  },
  {
    "Structure string": "CCOc1ccc(Cc2nc3cc(OC(=O)N(C)C)ccc3n2CCC(C)C)cc1",
    "pIC50": 5.92
  }
]
